TESTED TARGET: Grb2 SH2 (UniProt P62993)
Sequence (P62993 whole entry, looked up, the tested form may be a part): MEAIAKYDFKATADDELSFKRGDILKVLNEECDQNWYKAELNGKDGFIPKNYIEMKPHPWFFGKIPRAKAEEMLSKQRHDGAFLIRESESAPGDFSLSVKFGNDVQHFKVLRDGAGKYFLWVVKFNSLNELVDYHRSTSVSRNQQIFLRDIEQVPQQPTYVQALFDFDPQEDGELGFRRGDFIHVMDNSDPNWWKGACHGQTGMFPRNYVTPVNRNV
EXPERIMENTAL DETAILS: SH2 binding enrichment of the phosphorylated peptide, bacterial display (enrichment ratio); higher = better substrate or ligand; peptides without Tyr show the background;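 also: peptide library displayed on the E. coli surface as eCPX fusions, selected cells deep-sequenced, score is each peptide's frequency after selection divided by its frequency in the input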
Can you tell me SH2 binding enrichment for the items I'm about to list?
Output: the number by itself.

Query string: If you can, please state the reported SH2 binding enrichment value of DNEALYDICFR [TUBB2B_Y208] .
Result string: 0.77

Query string: If you can, please state the reported SH2 binding enrichment value of LADMNYVHCDL [EPHB2_Y742_R745C] .
Result string: 0.823

Query string: If you can, please state the reported SH2 binding enrichment value of YISLIYTNYEV [GSTP1_Y109_A114V] .
Result string: 1.18

Query string: If you can, please state the reported SH2 binding enrichment value of KNNDGYIDFAE [MCFD2_Y135_YF] .
Result string: 0.707

Query string: If you can, please state the reported SH2 binding enrichment value of LPKEQYLCTKE [AFG3L2_Y614_Y616C] .
Result string: 0.883

Query string: If you can, please state the reported SH2 binding enrichment value of KAIDMYLMGCF [GABRB2_Y308] .
Result string: 0.823

Query string: If you can, please state the reported SH2 binding enrichment value of LNAGAYSKVVQ [PPT1_Y172] .
Result string: 0.623

Query string: If you can, please state the reported SH2 binding enrichment value of VHLFAYDWISI [BEST1_Y227_G222V_YF] .
Result string: 1.3

Query string: If you can, please state the reported SH2 binding enrichment value of ASMAKYYASEI [ACADSB_Y372] .
Result string: 0.849

Query string: If you can, please state the reported SH2 binding enrichment value of VVAHHYSFAPD [TNS3_Y601_Q600H] .
Result string: 0.781

Query string: If you can, please state the reported SH2 binding enrichment value of TVLGEYASPKG [CYP24A1_Y407_L409S] .
Result string: 1.02

Query string: If you can, please state the reported SH2 binding enrichment value of NYADPYRQLPY [CTNND2_Y503_Q507P] .
Result string: 0.775

Query string: If you can, please state the reported SH2 binding enrichment value of SVTCTYSPVLN [TP53_Y126_A129V] .
Result string: 0.78

Query string: If you can, please state the reported SH2 binding enrichment value of PIPIKYKAMKK [MYD88_Y257_L252P] .
Result string: 1.32
